target: Homeodomain-interacting protein kinase 2 (Homo sapiens) (UniProt Q9H2X6); test: Inhibition of human HIPK2 assessed as residual activity at 0.1 uM relative to control
Sequence (Q9H2X6 whole entry, looked up): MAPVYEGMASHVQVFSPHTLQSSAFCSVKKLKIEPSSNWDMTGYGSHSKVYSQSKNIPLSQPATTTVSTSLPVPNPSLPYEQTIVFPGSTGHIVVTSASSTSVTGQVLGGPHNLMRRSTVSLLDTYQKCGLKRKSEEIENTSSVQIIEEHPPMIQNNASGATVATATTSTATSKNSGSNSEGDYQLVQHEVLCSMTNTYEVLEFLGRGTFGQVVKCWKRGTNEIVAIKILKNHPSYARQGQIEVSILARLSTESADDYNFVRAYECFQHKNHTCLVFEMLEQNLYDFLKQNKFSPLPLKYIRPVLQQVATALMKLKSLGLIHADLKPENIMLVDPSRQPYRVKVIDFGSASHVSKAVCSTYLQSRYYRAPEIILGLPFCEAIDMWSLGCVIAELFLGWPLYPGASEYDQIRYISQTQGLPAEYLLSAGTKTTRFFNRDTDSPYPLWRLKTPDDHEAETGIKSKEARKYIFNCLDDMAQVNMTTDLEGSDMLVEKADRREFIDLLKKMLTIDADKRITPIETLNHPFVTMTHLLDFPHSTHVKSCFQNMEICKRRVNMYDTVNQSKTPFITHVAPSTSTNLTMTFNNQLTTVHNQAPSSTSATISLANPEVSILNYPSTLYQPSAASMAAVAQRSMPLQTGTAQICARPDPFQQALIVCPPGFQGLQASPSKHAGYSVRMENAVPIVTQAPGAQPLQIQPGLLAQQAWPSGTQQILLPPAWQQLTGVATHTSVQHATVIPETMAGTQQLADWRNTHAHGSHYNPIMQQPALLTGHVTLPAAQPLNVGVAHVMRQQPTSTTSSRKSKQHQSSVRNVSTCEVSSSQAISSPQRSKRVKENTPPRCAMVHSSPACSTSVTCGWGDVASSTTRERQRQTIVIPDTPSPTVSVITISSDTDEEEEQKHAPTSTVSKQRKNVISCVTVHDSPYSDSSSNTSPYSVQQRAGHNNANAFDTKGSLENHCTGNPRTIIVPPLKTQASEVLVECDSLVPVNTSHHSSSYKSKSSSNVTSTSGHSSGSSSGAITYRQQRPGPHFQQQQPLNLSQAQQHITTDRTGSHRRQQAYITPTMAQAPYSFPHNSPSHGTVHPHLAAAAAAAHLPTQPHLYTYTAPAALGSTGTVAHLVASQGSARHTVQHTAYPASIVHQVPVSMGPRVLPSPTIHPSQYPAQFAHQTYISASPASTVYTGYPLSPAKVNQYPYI
Readout Type: Activity (%)

* COc1ccc2c(c1)c(/C=C1\C(=O)Nc3ccc(S(N)(=O)=O)cc31)cn2C | 108
* Cn1cc(/C=C2\C(=O)Nc3ccc(S(N)(=O)=O)cc32)c2ccccc21 | 112
* COc1ccc2[nH]cc(/C=C3\C(=O)Nc4ccc(S(N)(=O)=O)cc43)c2c1 | 124
* CNS(=O)(=O)c1ccc2c(c1)/C(=C/c1cn(C)c3ccc(OC)cc13)C(=O)N2 | 106
* CN(C)S(=O)(=O)c1ccc2c(c1)/C(=C/c1cn(C)c3ccc(O)cc13)C(=O)N2 | 120
* COc1ccc2c(c1)c(/C=C1\C(=O)Nc3ccc(S(=O)(=O)N(C)C)cc31)cn2C | 109

* * *

molecular target: MAP/microtubule affinity-regulating kinase 3 (Homo sapiens) (UniProt P27448); assay: Inhibition of human MARK3 assessed as residual activity at 0.1 uM relative to control
Sequence (P27448 whole entry, looked up): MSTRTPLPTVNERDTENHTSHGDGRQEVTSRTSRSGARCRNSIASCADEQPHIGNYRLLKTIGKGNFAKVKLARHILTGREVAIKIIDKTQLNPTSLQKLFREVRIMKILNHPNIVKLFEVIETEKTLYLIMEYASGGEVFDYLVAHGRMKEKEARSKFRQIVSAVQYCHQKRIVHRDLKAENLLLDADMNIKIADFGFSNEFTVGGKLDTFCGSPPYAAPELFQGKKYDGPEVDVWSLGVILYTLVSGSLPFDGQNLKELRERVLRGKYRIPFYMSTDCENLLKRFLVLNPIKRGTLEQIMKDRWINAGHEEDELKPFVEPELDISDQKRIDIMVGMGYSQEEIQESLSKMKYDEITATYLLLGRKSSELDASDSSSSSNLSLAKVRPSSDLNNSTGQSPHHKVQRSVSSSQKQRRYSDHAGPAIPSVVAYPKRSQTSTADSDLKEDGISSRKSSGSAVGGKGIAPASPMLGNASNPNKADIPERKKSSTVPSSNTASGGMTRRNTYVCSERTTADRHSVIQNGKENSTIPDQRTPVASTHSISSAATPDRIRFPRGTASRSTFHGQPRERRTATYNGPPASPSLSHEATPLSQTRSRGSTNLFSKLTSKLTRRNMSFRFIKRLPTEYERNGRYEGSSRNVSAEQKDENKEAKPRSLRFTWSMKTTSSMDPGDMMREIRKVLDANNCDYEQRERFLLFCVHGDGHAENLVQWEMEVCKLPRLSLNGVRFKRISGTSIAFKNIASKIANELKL
Readout Type: Activity (%)

• COc1ccc2[nH]cc(/C=C3\C(=O)Nc4ccc(S(N)(=O)=O)cc43)c2c1 = 101
• Cn1cc(/C=C2\C(=O)Nc3ccc(S(N)(=O)=O)cc32)c2ccccc21 = 93
• CN(C)S(=O)(=O)c1ccc2c(c1)/C(=C/c1cn(C)c3ccc(O)cc13)C(=O)N2 = 103
• COc1ccc2c(c1)c(/C=C1\C(=O)Nc3ccc(S(=O)(=O)N(C)C)cc31)cn2C = 93
• CNS(=O)(=O)c1ccc2c(c1)/C(=C/c1cn(C)c3ccc(OC)cc13)C(=O)N2 = 100
• COc1ccc2c(c1)c(/C=C1\C(=O)Nc3ccc(S(N)(=O)=O)cc31)cn2C = 96

* * *

biological target: Insulin-like growth factor 1 receptor (Homo sapiens); assay: Inhibition of human IGF1R assessed as residual activity at 1 uM relative to control
Readout Type: Activity (%)

* CN(C)S(=O)(=O)c1ccc2c(c1)/C(=C/c1cn(C)c3ccc(O)cc13)C(=O)N2 | 95

(I) Cn1cc(/C=C2\C(=O)Nc3ccc(S(N)(=O)=O)cc32)c2ccccc21
(II) CNS(=O)(=O)c1ccc2c(c1)/C(=C/c1cn(C)c3ccc(OC)cc13)C(=O)N2
Rank I against II by their Activity values and give the higher one. Select an item and report its label.
I

* * *

biological target: High affinity nerve growth factor receptor (Homo sapiens, UniProt P04629); experiment: Inhibition of human TRKA assessed as residual activity at 0.1 uM relative to control
Sequence (P04629 33-796 limits assumed): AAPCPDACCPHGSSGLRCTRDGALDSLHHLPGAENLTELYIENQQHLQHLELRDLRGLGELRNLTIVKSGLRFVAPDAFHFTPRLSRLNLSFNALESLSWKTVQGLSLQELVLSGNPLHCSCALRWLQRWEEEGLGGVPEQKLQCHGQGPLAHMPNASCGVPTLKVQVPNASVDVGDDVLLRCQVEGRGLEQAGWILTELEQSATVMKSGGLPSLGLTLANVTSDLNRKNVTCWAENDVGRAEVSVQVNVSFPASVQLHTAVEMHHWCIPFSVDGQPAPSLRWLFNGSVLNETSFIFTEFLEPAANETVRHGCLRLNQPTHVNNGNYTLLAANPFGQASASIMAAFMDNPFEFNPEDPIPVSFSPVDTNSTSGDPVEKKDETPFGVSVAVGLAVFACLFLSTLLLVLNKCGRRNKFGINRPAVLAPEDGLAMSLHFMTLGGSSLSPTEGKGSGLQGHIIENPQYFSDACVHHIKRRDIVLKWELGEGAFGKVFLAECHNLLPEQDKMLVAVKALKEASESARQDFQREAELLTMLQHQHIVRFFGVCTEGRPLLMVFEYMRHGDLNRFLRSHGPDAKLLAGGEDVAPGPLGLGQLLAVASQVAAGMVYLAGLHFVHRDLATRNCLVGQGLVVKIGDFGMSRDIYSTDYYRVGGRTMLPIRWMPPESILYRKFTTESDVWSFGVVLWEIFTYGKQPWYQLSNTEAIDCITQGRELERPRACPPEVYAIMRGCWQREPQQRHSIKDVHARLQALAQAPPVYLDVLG
Readout Type: Activity (%)

Reference set, count: 3
• COc1ccc2c(c1)c(/C=C1\C(=O)Nc3ccc(S(=O)(=O)N(C)C)cc31)cn2C = 18
• CNS(=O)(=O)c1ccc2c(c1)/C(=C/c1cn(C)c3ccc(OC)cc13)C(=O)N2 = 4
• Cn1cc(/C=C2\C(=O)Nc3ccc(S(N)(=O)=O)cc32)c2ccccc21 = 3

(A) CN(C)S(=O)(=O)c1ccc2c(c1)/C(=C/c1cn(C)c3ccc(O)cc13)C(=O)N2
(B) COc1ccc2[nH]cc(/C=C3\C(=O)Nc4ccc(S(N)(=O)=O)cc43)c2c1
(C) COc1ccc2c(c1)c(/C=C1\C(=O)Nc3ccc(S(N)(=O)=O)cc31)cn2C
Descending sort on Activity required. Please write the labels in the order that was asked for.
A, B, C
